Just for reference, the supplement of paper PMC10567573 is where these values come from.

test: protein stability index of a GFP-peptide fusion (GPS, HEK-293T) (PSI 1-6); higher = more stable; conditions: treatment: DMSO; c terminus: a fixed tail appended;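 note: 24-mer peptide tiles fused after GFP, lentivirally expressed, FACS-sorted into six equal bins by GFP/DsRed ratio, decoded by Illumina sequencing, PSI is the read-weighted mean bin number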
Assign a class from recorded protein stability index; defined classes: bin A: < 3; bin B: ≥ 3 and < 5; bin C: ≥ 5

DRRKKIARMGFNASSMLRKSQLGF [DCAF4]: bin A
FSIVSVAAHLALLLLCGTISLRVY [RTN2]: bin B
GRPIKPPKKDLEDGEVPQHAGKKG [BRD3]: bin C
PFKFHMLHSGLVHGLAFWFDVAFI [CARM1]: bin A
QNGEEGTSTPEDKESGQEGVDSMA [SMARCE1]: bin C
LCQVAQEALASAGASCCGQPLASH [VENTX]: bin B
EQEHAAIQDKLFQVAKREREAATK [CHCHD6]: bin C

Asked: Sort QTRRASALIDRPAPYFERSSSKRY [EPB41L3] into one of the categories.
Given back: bin B

====

Each entry below carries its recorded protein stability index.
assay: protein stability index of a GFP-peptide fusion (GPS, HEK-293T) (PSI 1-6); higher = more stable; conditions: treatment: DMSO; c terminus: a fixed tail appended

CLAKGTFSDVTFILDDGTISAHKP [RHOBTB2]: 2.36
TRLSRLQEKEELRELNDRLAVYID [LMNB1]: 3.42
VASEMRFVQDLVRALEQEKLQGVE [DAPK3]: 4.42

Reported protein stability index for GKSLLLMTRNDVLTGLQLKLGPAL [SAMD13] was 2.27

Record summary for SGAVGARRFLLCLYLVGFLDLFGV [MFSD9] : reported protein stability index = 2.99

According to the records, this sequence PGAHGRFMPQGAGGHTREARIQTL [RSAD1] displays protein stability index of 3.63

For record ASLGDVQSGATISMPCSTDKENGE [SASS6] the listed protein stability index is 5.69

The reported value for TLLGNPKKRMRYFDPLRNEYFFDR [KCNA1] in terms of protein stability index is 2.27

# protein stability index (sequence: STGEAGTDGDHNVYPRPPEPREFS [ZC2HC1C] ) is 5.03

Per the record, AKEEGGEEVAKAVLEQEETAAASR [EPB41L3] has protein stability index of 5.47

Per the records, this sequence ( ELEKSGHGQAGQRQDPRPHGPQLP [ZBED2] ) has protein stability index equal to 5.01

// field: protein stability index; key: STFHTISPSFQLKAAALPPFPLGA [PLAGL1] ; value = 2.48

# sequence YANLALSGLIEIQSYPLCIYLINQ [SLC22A15] ; its protein stability index = 3.9

Value of protein stability index reported for the sequence PLRSSLPISLQATPATPATLSASS [TFE3] is 4.47

Field protein stability index (entry DDCSSTIVEDPQTKCEYMLNSMPK [ESRRG] ) reads 4.87

====

assay: protein stability index of a GFP-peptide fusion (GPS, HEK-293T) (PSI 1-6); higher = more stable; settings: treatment: MLN4924 1 uM, 8 h; c terminus: a fixed tail appended
Values of protein stability index greater than or equal to 3 map to YES; values below map to NO.

Reference set, count: 5
MRLNSTGEVPVLIHGENIICEATQ [GDAP1]: YES
QVAPLTHVFQRQKSELSDGIAILV [TRIM55]: NO
IVQGSSGAQGSGGGSTSAHYAVNS [CARM1]: YES
TFHEGKHNISHMSMDIARGLMVTC [WDFY1]: NO
HEMREQHDAQVRLYKEELEQTYHA [LMNB1]: YES

Here is the next item to consider.
Asked: Given STPSDNIVRRFLNICENTEGAIAV [CDC14A] , state whether its protein stability index is at least 3.
Given back: YES
